FYI, the data here is from paper PMC10119292.

test-system: human TANGO1 cargo-recognition (MOTH) domain, residues 21-131 (human, UniProt Q5JRA6-4 21-131, disulfides Cys38-Cys43 and Cys61-Cys124; cis-Pro83; His-tag removed with TEV (PDB 7R3M entity has one extra N-terminal Met); 15N or 15N/13C labelled for NMR)
Sequence (Q5JRA6 other isoform, or with tags, fused parts or gaps): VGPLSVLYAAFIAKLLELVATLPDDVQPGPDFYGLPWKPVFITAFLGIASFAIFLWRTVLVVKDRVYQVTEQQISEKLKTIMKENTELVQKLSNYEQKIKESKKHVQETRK
assay-overview: NMR titration; 1H-15N HSQC series of 208 µM [U-15N]-hsTANGO1(21-131) with peptide 132-151 at ratios 1:0.25 to 1:6; 25 mM HEPES pH 7.4, 150 mM NaCl, 298 K; two-dimensional lineshape analysis (TITAN), two-state binding model
experimental-conditions: both partners purified
metric-name: pKd
Remember the convention: pKd equals -log10 of concentration in molar.

Q) Please look at this binder and report its pKd: FHNYNVEELLGFLELYNSAA (peptide, UniProt Q5JRA6 132-151, looked up, TANGO1, human, UniProt Q5JRA6, residues 132-151; also called C-terminal helix peptide; peptide corresponding to residues 132–151; source: synthetic peptide) [synthetic peptide of human TANGO1 residues 132-151 (predicted C-terminal helix)]
A) 3.49
